Tested on: SNB-75 CNS
Measurement Notes: NCI-60 one-dose screen, 48 h
Measurement Context: 10 µM
The panel holds about 83,000 compounds, 20% with a hit somewhere; the sample as a whole holds those more often. The source made the active and inactive calls. Rule for the calls: active = growth percent below 10; inactive = the rest.
Classes used: 1 (active), 0 (inactive)

Compound	Target Of Assay	Answer Label
COc1ccc(-c2nn(-c3cccc(NC(=O)c4ccc(Cl)c(Cl)c4)c3)cc2-c2ccncc2)cc1Cl	SNB-75 CNS	0
O=C(CC(NC(=O)OCc1ccccc1)C(=O)OCc1ccccc1)OCc1ccccc1 (stereo not given)	SNB-75 CNS	0
Nc1ccn(C2CC(O)C(CO)O2)c(=O)n1 (stereo not given)	SNB-75 CNS	0
CSc1nc(=O)n(Cc2ccc(F)cc2)c(=O)n1Cc1ccc(C)cc1	SNB-75 CNS	0
CN(C)CCOc1nc2ccccc2c2c1-c1ccc(Cl)cc1C2=O	SNB-75 CNS	1
COc1cc(Cl)cc(-c2nn(-c3cccc(NC(=O)c4ccc(Cl)c(Cl)c4)c3)cc2-c2ccncc2)c1	SNB-75 CNS	0
Cc1ccc(Nc2nnc(-c3cc(-c4ccncc4)n(-c4ccccc4)n3)s2)cc1	SNB-75 CNS	0
C#Cc1ccc(-n2c(/C=C/c3ccc(Cl)c(F)c3)nc3ncccc3c2=O)cc1	SNB-75 CNS	1
O=C1/C(=C\c2ccccc2)CN(C(=O)c2ccccc2F)C/C1=C\c1ccccc1	SNB-75 CNS	0
N#Cc1ncc(-c2cc(F)c(F)c(F)c2)c(NC2CCCCCC2)n1	SNB-75 CNS	0

---

Test system: SK-MEL-2 melanoma
Measurement Notes: NCI-60 one-dose screen, 48 h (100 = growth as untreated, 0 = no growth, -100 = all killed)
Measurement Context: 10 µM
The panel holds about 83,000 compounds, 20% with a hit somewhere; the sample as a whole holds those more often.
Observable: growth (%)

Smiles String	Target Of Assay	Quantitative Result
Cc1ccc(N=Nc2c(N)nc(N)[nH]c2=O)cc1C	SK-MEL-2 melanoma	100
Fc1cc(C(F)(F)F)ccc1-c1cncnc1NC1CCCCCC1	SK-MEL-2 melanoma	98.8
CN1CCCNc2c(c(=O)c2=O)NCCCN(C)CCCNc2c(c(=O)c2=O)NCCCN(C)CCCNc2c(c(=O)c2=O)NCCCN(C)CCCNc2c(c(=O)c2=O)NCCCN(C)CCCNc2c(c(=O)c2=O)NCCCN(C)CCCNc2c(c(=O)c2=O)NCCCN(C)CCCNc2c(c(=O)c2=O)NCCC1	SK-MEL-2 melanoma	76.6
CCOC(=O)CNC(=O)CCCCSc1ncnc2nc[nH]c12	SK-MEL-2 melanoma	97.6

---

Tested on: SK-OV-3 ovarian
Measurement Notes: NCI-60 one-dose screen, 48 h
Measurement Context: 10 µM
About 83,000 compounds went through this panel and 20% of them were active in at least one assay; those are over-represented in the sample as a whole. The source made the active and inactive calls. The calls were made as follows: active = growth percent below 10; inactive = the rest.
Classes used: active, inactive

Compound	Answer Label
Nc1ccc2c(c1)C1(CCC2)NC(=O)NC1=O (stereo unspecified)	inactive
CCN(CC)CCN1CC(=O)Nc2cc(Cl)ccc21	inactive
CN(C)c1ccc(/C=C/C=N/NC(=O)c2cc(O)c(O)c(O)c2)cc1	inactive
COc1ccc(S(=O)(=O)NCCCNc2nccc(-c3c(-c4ccc(F)cc4)nc4sccn34)n2)cc1	inactive
CN(C)CCN1C(=O)c2cccc3c(-c4ccc5ncn(C6CCCCC6)c5c4)ccc(c23)C1=O	inactive
CCCCCCCCCCCCCCCCCC(=O)OCCCCCCC	inactive
O=C1OCC2=C1C(c1cccc(Cl)c1)c1cc3c(cc1N2CCO)CCC3 (stereo unspecified)	inactive
CCOC(=O)N1C/C(=C/c2ccc(Cl)cc2)C(=O)/C(=C/c2ccc(Cl)cc2)C1	inactive
CN(C)CCOc1nc2ccccc2c2c1-c1ccc(Cl)cc1C2=O	inactive
COc1ccc(-c2nn(-c3cccc(NC(=O)Nc4ccccc4)c3)cc2-c2ccncc2)cc1Cl	inactive
CCC1(C(C)C)NC(=O)NC1=O (stereo unspecified)	inactive
Cc1ccc(C(=O)N2C/C(=C/c3ccc(F)cc3)C(=O)/C(=C/c3ccc(F)cc3)C2)cc1	inactive
COc1ccc(OC)c(/C=C/c2nc(SC)n(-c3ccc(Cl)cc3)n2)c1	inactive
CCCCOc1ccc(NC(=O)Nc2nnc(C)s2)cc1	inactive
COc1ccc(-c2nc(-c3nc4ccc(Cl)cc4[nH]3)c3ccccn23)cc1	active
CSc1nn(-c2ccccc2)c2ncnc(Oc3ccccc3)c12	inactive
COc1cc(-c2cc(/C=C3\C(=O)Nc4ccc(Cl)cc43)[nH]n2)cc(OC)c1OC	inactive
Cc1ccc(C)c(C(O)(c2cc(C)ccc2C)C2(O)CCCCC2)c1	inactive
CCCCCCCCCCCCCCCC(=O)OC1[C@@H](OC(=O)CCCCCCCCCCCCCCC)[C@@H](C(=O)N[C@@H](CCCCN)C(=O)OC)O[C@H]1n1cnc2c(=O)[nH]c(NC(=O)C(C)C)nc21 (stereo partly specified)	inactive
Cc1ccc(-c2n[nH]c(=O)c3noc(-c4ccc(C)cc4)c23)cc1	inactive
COc1ccc(C2=NN(C(=O)c3ccc(S(C)(=O)=O)cc3)C(c3ccc(OC)c(OC)c3)C2)c(OC)c1 (stereo unspecified)	inactive

---

System: SK-OV-3 ovarian
Measurement Notes: NCI-60 one-dose screen, 48 h (100 = growth as untreated, 0 = no growth, -100 = all killed)
Measurement Context: 10 µM
About 83,000 compounds went through this panel and 20% of them were active in at least one assay; those are over-represented in the sample as a whole.
Checkbox rule: growth lower than 80% = Satisfied; growth not lower than 80% = Not satisfied.

Compound	Answer Label
COc1cc(-c2cc(/C=C/C(=O)c3ccc4c(c3)OCO4)[nH]n2)cc(OC)c1OC	Not satisfied
O=[N+]([O-])c1cccc(-c2ncc(-c3ccc(Cl)cc3Cl)[nH]2)c1	Not satisfied
COc1cc(Cl)cc(-c2nn(-c3cccc(NC(=O)Nc4cc(C(F)(F)F)cc(C(F)(F)F)c4)c3)cc2-c2ccncc2)c1	Satisfied
NC(=S)N=Nc1c(O)c2ccccc2c2ccccc12	Not satisfied
CC(=O)c1cc(Cl)ccc1O	Not satisfied
CCN(CC)CCNC(=O)c1ccc(NC(C)=O)cc1	Not satisfied
CCCCCCCCCCCCCCCCCCOCC(COCCOCC[N+]1(CCCCCC(=O)[O-])CCCC1)Oc1ncccn1 (stereo not given)	Not satisfied
O=C1/C(=C\c2ccccc2)CN(C(=O)c2ccccc2)C/C1=C\c1ccccc1	Satisfied
O=C(Nc1ccc(Cl)cc1)N1NC(c2ccc(Cl)cc2)C=C1c1ccccc1 (stereo not given)	Not satisfied

---

Tested on: SK-MEL-2 melanoma
Measurement Notes: NCI-60 one-dose screen, 48 h
Measurement Context: 10 µM
Compounds without any hit were thinned out: in the full panel of roughly 83,000, 20% have a hit. Activity calls are given as the source filed them. The calls were made as follows: active = growth percent below 10; inactive = the rest.
Classes used: Y = active, N = inactive

Compound	Target Of Assay	Answer Label
COc1ccc(-c2nc3sccn3c2-c2nc3c([nH]2)C(=O)c2ccccc2C3=O)cc1	SK-MEL-2 melanoma	N
COc1ccc(N2C(=O)C3c4[nH]c5ccc(OCc6ccccc6)cc5c4C4CCC(C(C)C)CC4C3C2=O)cc1 (centres undefined)	SK-MEL-2 melanoma	N
COc1ccc(-c2nc3ncccn3c2-c2nnc(-c3ccc(F)cc3)o2)cc1	SK-MEL-2 melanoma	N
CCOC(=O)N1C/C(=C/c2ccc(F)cc2)C(=O)/C(=C/c2ccc(F)cc2)C1	SK-MEL-2 melanoma	N
CCCCCCCCCCCCCCCCN(C(C)c1ccccc1)S(=O)(=O)c1ccc(OC)c(N)c1 (centres undefined)	SK-MEL-2 melanoma	N
NC(=S)N=Nc1c(O)c2ccccc2c2ccccc12	SK-MEL-2 melanoma	N
COc1ccc2c(c1)O/C(=C\c1ccc([N+](=O)[O-])o1)C2=O	SK-MEL-2 melanoma	Y
COc1cc(-c2nn3c(/C=C4/C(=O)Nc5ccccc54)c(-c4ccc(C)cc4)nc3s2)cc(OC)c1OC	SK-MEL-2 melanoma	N
CC(=O)/C(=C/c1ccccc1)C(=O)CC(C)C	SK-MEL-2 melanoma	N
O=C(CCCCCCC(=O)Nc1cccnc1)NO	SK-MEL-2 melanoma	N
O=C1/C(=C/c2ccc([N+](=O)[O-])o2)Oc2ccccc21	SK-MEL-2 melanoma	N
c1ccc(CSc2nnc3c4c5c(sc4nc(-c4cccnc4)n23)CCCCCC5)cc1	SK-MEL-2 melanoma	N
COc1ccc(N=C2C(=Nc3ccc(OC)cc3)N(c3ccc(N(C)C)cc3)C(=S)N2c2ccc(OC)cc2)cc1	SK-MEL-2 melanoma	N
CN(C)CC(O)c1ccc2cc(Br)c3ccccc3c2c1 (centres undefined)	SK-MEL-2 melanoma	N
CCN(CC)CCCC(C)Nc1ccc2ccc(Cl)cc2n1 (centres undefined)	SK-MEL-2 melanoma	N
C[C@]12CC[C@@H]3c4ccc(O)cc4C[C@@H](O)[C@H]3[C@@H]1CC[C@@H]2O	SK-MEL-2 melanoma	N
CCCCCCCCCCCCCC[n+]1ccc(C(N)=O)cc1	SK-MEL-2 melanoma	Y
Cc1cc(=O)[nH]c(N/N=C/c2ccccc2O)n1	SK-MEL-2 melanoma	N
COc1cc(Nc2ccnc(NCCCNc3ccnc4cc(Cl)ccc34)n2)cc(OC)c1	SK-MEL-2 melanoma	Y
CC1(C)OC2=C(CC1Br)C(=O)C(=O)c1ccccc12 (centres undefined)	SK-MEL-2 melanoma	Y
CCCC(F)C(=O)O (centres undefined)	SK-MEL-2 melanoma	N
CCOCC(=O)C(C#N)c1ccc(Cl)c(Cl)c1 (centres undefined)	SK-MEL-2 melanoma	N
FC(F)(F)c1ccc2nc(-c3nc(-c4ccccc4)n4ccccc34)[nH]c2c1	SK-MEL-2 melanoma	N
COc1cc(-c2nc(Nc3nc4ccccc4s3)[nH]c(=O)c2C#N)cc(OC)c1O	SK-MEL-2 melanoma	N
CCCN(CCC)CCC(O)c1cc2c(c3ccccc13)CCCC2 (centres undefined)	SK-MEL-2 melanoma	N
CC(C)=NNc1ncnc2c1ncn2C1OC(CO)C(O)C1O (centres undefined)	SK-MEL-2 melanoma	N
CS(=O)(=O)Nc1ccc(Nc2c3ccccc3nc3cc([N+](=O)[O-])ccc23)cc1	SK-MEL-2 melanoma	N
CN(C)c1ccc(-c2cc(-c3cccc(NS(C)(=O)=O)c3)nc(N)c2C#N)cc1	SK-MEL-2 melanoma	N
COc1cc(NC(=O)CCSc2nc3ccc(C)cc3c(=O)n2Cc2ccccc2)cc(OC)c1OC	SK-MEL-2 melanoma	N
COc1ccc(NC(=O)CSc2nc3ccccc3c(=O)n2CCc2ccccc2)cc1	SK-MEL-2 melanoma	N
O=C1/C(=C\c2ccc(Br)cc2)CN(C(=O)c2ccccc2F)C/C1=C\c1ccc(Br)cc1	SK-MEL-2 melanoma	N
CC/C(C)=C(\C)C(=O)O	SK-MEL-2 melanoma	N
Cc1ccc(C(=O)N2C/C(=C/c3ccc(F)cc3)C(=O)/C(=C/c3ccc(F)cc3)C2)cc1	SK-MEL-2 melanoma	N
O=C(Nc1ccc(Cl)c(Cl)c1)Nc1c(Oc2ccc(Cl)c(Cl)c2)ccc(Cl)c1S(=O)(=O)O	SK-MEL-2 melanoma	Y
O=C(Nc1ccncc1)C(=O)c1cn(S(=O)(=O)c2cccc(Cl)c2)c2ccccc12	SK-MEL-2 melanoma	N
CN(C)c1ccc(Cc2ccc(N(C)C)cc2Cl)c(Cl)c1	SK-MEL-2 melanoma	N
N#CCCN(NC(=O)OCc1ccccc1)C(=O)OCc1ccccc1	SK-MEL-2 melanoma	N
CN(C)CCS(=O)(=O)CCN(C)C	SK-MEL-2 melanoma	N
Cc1ccc(NC(=O)Nc2cccnc2)cc1NC(=O)Nc1cccnc1	SK-MEL-2 melanoma	N
COc1cc(Nc2ccnc(NCCNc3ccnc4cc(Cl)ccc34)n2)cc(OC)c1	SK-MEL-2 melanoma	N
O=C1ON=[N+](c2ccc(Cc3ccc([N+]4=NOC(=O)C4CN4CCOCC4)cc3)cc2)C1CN1CCOCC1 (centres undefined)	SK-MEL-2 melanoma	N
CSC1=NCCCC1	SK-MEL-2 melanoma	N
COc1ccc(NC2=NC(C)(CO)CS2)cc1 (centres undefined)	SK-MEL-2 melanoma	N
CCCCCCCCCCCCC1C/C=C\CCCC(=O)O1 (centres undefined)	SK-MEL-2 melanoma	N

The reported numbers originate from PubChem BioAssay (NCI).
